TEST DETAILS: Nrf2 qHTS screen for inhibitors; note: nearly all actives have a fitted effect of over 60% in size
CONDITION SET: A549 ARE-Fluc reporter, luciferase luminescence, 18-24 h; series mostly up to 46 µM
In all, about 360,000 compounds went through this assay and about 7,500 (2.1%) were called active. Roughly 20% stayed inconclusive and do not appear here. Calls come from the whole dose curve; as a rule, active = well fitted inhibition curve with a large enough effect; inconclusive = small, poorly fitted or top-dose-only effect, or effect the other way; inactive = flat fitted curve, though single readings scatter. This is one part of a sample in which actives are shown more often than they occur.
Outcome codes: active, inactive

>>> category("CCCCNS(=O)(=O)c1ccc2nc(SCC(=O)Nc3cc(C)cc(C)c3)[nH]c2c1")
"active"
>>> category("O=C1c2ccccc2C(=O)C1c1ccccc1F")
"inactive"
>>> category("Cc1cc(C(=O)OCC(=O)N2C(C)CCCC2C)c2ccccc2n1 (centres undefined)")
"active"
>>> category("COc1cc2c(-c3ccc4c(c3)OCO4)c(-c3ccsc3)oc(=O)c2cc1OC")
"inactive"
>>> category("Cc1cc(C(=O)OCC(=O)Nc2nccs2)c2ccccc2n1")
"inactive"
>>> category("COc1ccc(-c2nc(Cn3c(=O)cc(C)c4c(C)nn(-c5ccccc5)c43)c(C)o2)c(OC)c1")
"inactive"
>>> category("Cc1ccc(Cn2cc(CCC(=O)NCc3ccc(OC(C)C)cc3)c3ccccc32)cc1")
"inactive"
>>> category("Cc1ccc(-n2c(=O)c3cccnc3n2CC(=O)Nc2ccccc2C(F)(F)F)cc1C")
"inactive"
>>> category("c1ccc(-c2nc(NCc3ccco3)c3ccccc3n2)cc1")
"inactive"

---

TEST DETAILS: Nrf2 qHTS screen for inhibitors; note: nearly all actives have a fitted effect of over 60% in size
CONDITION SET: A549 ARE-Fluc reporter, luciferase luminescence, 18-24 h; series mostly up to 46 µM
Out of some 360,000 compounds screened, about 7,500 (2.1%) were called active. Inconclusive results (about 20%) are left out. Calls come from the whole dose curve; as a rule, active = well fitted inhibition curve with a large enough effect; inconclusive = small, poorly fitted or top-dose-only effect, or effect the other way; inactive = flat fitted curve, though single readings scatter. Many of the other results were omitted from the sample, so actives are more common in it than they were.
Outcome codes: T for active, F for inactive

>>> category("CC1=C(c2ccc(C)c(C)c2)S(=O)(=O)NC1=NCc1ccccc1Cl")
"T"
>>> category("COc1ccccc1C(=O)NCCC(=O)N(C)Cc1cccnc1")
"F"
>>> category("CC(C)c1ccc(-c2noc(C3CCCN(S(C)(=O)=O)C3)n2)cc1 (stereo not drawn)")
"F"
>>> category("CC[C@]12c3[nH]c4ccc(OC)cc4c3CCN1C(=O)C(CC(=O)NCc1ccco1)C[C@@H]2C(=O)N1CCN(C(=O)C2CC2)CC1 (stereo partly drawn)")
"F"
>>> category("COc1ccccc1C(=O)Nc1c(C(=O)N(C)Cc2ccccc2)sc2nc(C)c(Cl)c(C)c12")
"T"
>>> category("NC(=O)C1CCN(C(=O)c2cc(S(=O)(=O)N3CCN(c4ccccc4)CC3)ccc2Cl)CC1")
"F"
>>> category("Cc1nn(-c2ccccc2)c(C)c1NC(=O)COc1ccc(Cl)cc1Cl")
"T"
>>> category("O=C(CSc1nc2ccccc2c(=O)n1CCCO)N1CCc2ccccc21")
"F"
>>> category("CN(C)C(=O)CCc1ccc2c3c([nH]c2c1)[C@]1(CCC2CCCC2)[C@@H](C(=O)N2CCOCC2)C[C@H](CC(=O)NCc2ccco2)C(=O)N1CC3")
"F"
>>> category("CCn1nccc1C(=O)Nc1ccc(Cl)c(Cl)c1")
"F"
>>> category("CCc1cc2c(cc3c(=O)n(CC(=O)NCc4cccc(Cl)c4)nc(CC)n32)s1")
"F"
>>> category("CCOC(=O)c1c(C)[nH]c(C)c1S(=O)(=O)N(C)CC(=O)N1CCN(c2ccccc2)CC1")
"F"
>>> category("CCC(=O)OCCNc1nc(-c2ccccc2)nc2ccccc12")
"F"
>>> category("CCCN(C(=O)COC(=O)CNS(=O)(=O)c1ccc(NC(C)=O)cc1)C1CCS(=O)(=O)C1 (stereo not drawn)")
"F"
>>> category("CCCN1CN=C(NS(=O)(=O)c2ccc(NC(C)=O)cc2)NC1")
"F"
>>> category("O=C1C=CC(=O)N1c1ccc(N2CCCCC2)cc1")
"T"
>>> category("O=C(CSc1nnc(-c2ccccc2F)o1)Nc1cccc(C(F)(F)F)c1")
"F"
>>> category("O=C(c1ccc(C(F)(F)F)cc1)N1CCC(c2nc(-c3ccc(S(=O)(=O)N4CCCC4)cc3)no2)CC1")
"T"
>>> category("COc1cccc(-c2ccc(C#N)c(SCC(=O)NCCc3ccc(Cl)cc3)n2)c1")
"F"
>>> category("COc1ccc(N2CCN(S(=O)(=O)c3ccc4c(c3)CC(=O)N4)CC2)cc1")
"F"
>>> category("Cn1c(SCC(=O)N2CCCc3ccccc32)nc2ccccc2c1=O")
"T"
>>> category("Cn1c2ccccc2c(=O)c2c(O)cccc21")
"F"
>>> category("COc1ccc2[nH]c3c(c2c1)CCN1C(=O)C(CC(=O)NCCCN(C)C)C[C@H](C(=O)N2CCOCC2)[C@@]31CCC1CCCC1 (stereo partly drawn)")
"F"
>>> category("O=S(=O)(O)c1cc2onnc2c2ccccc12")
"F"
>>> category("CCCc1nc2c(c(=O)c3ccccc3n2C)c(=O)n1-c1cc(C)cc(C)c1")
"F"
>>> category("CC[C@]12c3[nH]c4ccc(Cl)cc4c3CCN1C(=O)[C@@H](CC(=O)NCCN1CCOCC1)C[C@@H]2C(=O)N1CCN(C(=O)C2CC2)CC1")
"F"
>>> category("CCCc1nc2c(c(=O)c3ccccc3n2C)c(=O)n1C1CCCCCC1")
"T"
>>> category("Cc1ccc(-c2cc(C(=O)Oc3ccccc3Cl)no2)cc1C")
"F"
>>> category("CC(C)(C)OC(=O)NNc1c2ccccc2nc2ccccc12")
"T"
>>> category("O=S(=O)(c1ccc(SCc2ccc(Br)cc2)nc1)N1CCOCC1")
"F"
>>> category("O=C(Cc1cccs1)N1CCCC(c2nc(-c3ccc(S(=O)(=O)N4CCCC4)cc3)no2)C1 (stereo not drawn)")
"T"
>>> category("Cc1ccc(C(=O)CC2(O)C(=O)N(CCc3ccccc3)c3ccc(Br)cc32)cc1 (stereo not drawn)")
"F"
>>> category("NC(=O)C1CCN(C(=O)c2ccc(C(F)(F)F)cc2)CC1")
"F"

---

TEST DETAILS: Nrf2 qHTS screen for inhibitors; note: nearly all actives have a fitted effect of over 60% in size
CONDITION SET: A549 ARE-Fluc reporter, luciferase luminescence, 18-24 h; series mostly up to 46 µM
The campaign covered roughly 360,000 compounds. About 7,500 (2.1%) were called active. Another 20% or so got no clear call; they are omitted. Calls come from the whole dose curve; as a rule, active = well fitted inhibition curve with a large enough effect; inconclusive = small, poorly fitted or top-dose-only effect, or effect the other way; inactive = flat fitted curve, though single readings scatter. Shown is part of a subset that was picked to be rich in actives.
Possible outcomes: active, inactive

>>> category("Cc1ccc2nc(-c3ccc(O)cc3)c(Nc3ccc4c(c3)OCO4)n2c1")
"inactive"
>>> category("CC(C)Cc1cc(C(=O)Nc2cc(Br)ccc2O)no1")
"inactive"
>>> category("COc1ccccc1Nc1nc(N)nc(N)c1S(=O)(=O)c1ccccc1")
"inactive"
>>> category("CCc1cc2c(N3CCN(c4nnc(CC)s4)CC3)ncnc2s1")
"active"
>>> category("Brc1nc2ncnc(NCc3ccco3)c2[nH]1")
"inactive"
>>> category("CCOc1ccc2oc(=O)cc(CN3CCN(C(=O)c4ccc(F)cc4)CC3)c2c1")
"inactive"
>>> category("CCCCn1c(SCc2ncc(-c3ccccc3)o2)nc2cc(S(N)(=O)=O)ccc21")
"active"
>>> category("CN(C)S(=O)(=O)c1ccc(C(=O)NCC(C)(C)N2CCOCC2)cc1")
"inactive"
>>> category("CCOC(=O)c1ccccc1NC(=O)CSc1nc2c(sc(=S)n2CC)c(=O)[nH]1")
"inactive"
>>> category("Cc1nn(-c2ccc(N3CCCCC3)nn2)c(C)c1CCC(=O)NCc1ccc(F)cc1")
"inactive"
>>> category("Oc1ccccc1N1CCN(c2ncnc3sc(-c4ccccc4)cc23)CC1")
"inactive"
>>> category("O=C(Nc1c(C(=O)N2CCN(c3ccc(F)cc3)CC2)oc2ccccc12)c1ccco1")
"inactive"
>>> category("CC(C)c1ccc(C2CC(=O)N3CN(C4CCCCC4)CSC3=C2C#N)cc1 (centres undefined)")
"inactive"
>>> category("COc1ccccc1-c1noc(-c2ccc(NCc3ccccc3)c([N+](=O)[O-])c2)n1")
"inactive"

---

TEST DETAILS: Nrf2 qHTS screen for inhibitors; note: nearly all actives have a fitted effect of over 60% in size
CONDITION SET: A549 ARE-Fluc reporter, luciferase luminescence, 18-24 h; series mostly up to 46 µM
Out of some 360,000 compounds screened, about 7,500 (2.1%) were called active. About 20% were inconclusive and are not listed. Calls follow the shape of the dose curve; as a rule, active = well fitted inhibition curve with a large enough effect; inconclusive = small, poorly fitted or top-dose-only effect, or effect the other way; inactive = flat fitted curve, though single readings scatter. Only a selection was taken, and actives are over-represented in it overall.
Classes used: t = active, f = inactive

>>> category("Cc1nc2ccccc2c(C)c1C(=O)c1ccc(F)cc1")
"f"
>>> category("Cc1ccc(C)c(N2CCN(Cc3nnc(-c4ccccc4)o3)CC2)c1")
"f"
>>> category("CCOc1cc(N2CCOCC2)c(OCC)cc1NC(=O)COc1cccc2cccnc12")
"t"
>>> category("CCOC(=O)C1CCCN(C(=O)c2ccc3c(c2)sc2nc(-c4ccc(CC)cc4)cn23)C1 (stereo unspecified)")
"f"
>>> category("COc1cccc(/C=N/Nc2cc(C)nc(-c3ccccc3O)n2)c1O")
"t"
>>> category("CSCCC(NC(=O)COc1ccccc1)C(=O)OCc1ccc(Cl)cc1 (stereo unspecified)")
"f"
>>> category("Cc1nc2ccccc2c(-c2ccccc2)c1C(=O)c1ccccc1")
"t"
>>> category("CCN(C(=O)c1ccc(Br)cc1)c1ccccc1")
"f"
>>> category("CCOC(=O)C1=C(CN2CCc3ccccc32)NC(=O)NC1c1cccc([N+](=O)[O-])c1 (stereo unspecified)")
"f"
>>> category("CCn1c2ccccc2c2nnc(N3CCN(c4cc(C)ccc4C)CC3)nc21")
"t"
>>> category("CC(=O)Nc1cccc(-c2nc3ccccc3s2)c1C")
"t"
>>> category("CC/C(=C\\c1ccc(Cl)cc1)c1ccncc1")
"f"
>>> category("CC1CC(C)(C)n2c(O)c(N=NC(N)=S)c3cccc1c32 (stereo unspecified)")
"t"
>>> category("CN(Cc1ccccc1)C(=O)c1ccc(COc2ccccc2)cc1")
"f"
>>> category("Cc1ccc(NC(=O)NC(C)c2c(-n3cccc3)sc(C)c2C)c(C)c1 (stereo unspecified)")
"t"
>>> category("Cc1ccc(CCNC(=O)c2nnc(Cc3cccc(F)c3)o2)cc1")
"f"
